Molecular target: Kras and SOS1 (biotin-tagged human Kras loaded with GDP, His-tagged human SOS1) (Homo sapiens, UniProt P01116, G12D)
Construct: made in house; host or cells: E. coli (stated for Kras only)
Sequence (P01116 1-188 isoform P01116-2 G12D): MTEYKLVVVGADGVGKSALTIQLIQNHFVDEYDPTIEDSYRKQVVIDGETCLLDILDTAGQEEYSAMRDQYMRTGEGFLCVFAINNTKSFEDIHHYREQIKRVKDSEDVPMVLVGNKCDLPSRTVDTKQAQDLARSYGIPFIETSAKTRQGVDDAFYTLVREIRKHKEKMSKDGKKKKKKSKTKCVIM
Assay: Protein-protein interaction inhibition between Kras and SOS1 (KrasGl2D-SOS PPI) using AlphaScreen
Assay type: binding
Conditions: AlphaScreen; biotin-tagged human Kras loaded with GDP, His-tagged human SOS1; read-out: KRAS G12D-SOS PPI IC50
Positions of bridges follow the written chain, without caps; N, C: chain ends. Non-standard residues stand in square brackets, D forms with d. Residues, ends and D or L forms follow the SMILES beside them. hPhe(3-Cl-4-CF3) = N[C@@H](CCc1ccc(C(F)(F)F)c(Cl)c1)C(=O)O; NMePhe(4-Br) = CN[C@@H](Cc1ccc(Br)cc1)C(=O)O; NMePhe(4-Me) = CN[C@@H](Cc1ccc(C)cc1)C(=O)O; NMeF = CN[C@@H](Cc1ccccc1)C(=O)O; NMeI = CC[C@H](C)[C@H](NC)C(=O)O; NMeD = CN[C@@H](CC(=O)O)C(=O)O; NMeV = CN[C@H](C(=O)O)C(C)C; d(β3hA) = C[C@@H](N)CC(=O)O; NMeA = CN[C@@H](C)C(=O)O; dNMeA = CN[C@H](C)C(=O)O; Ac5c = NC1(C(=O)O)CCCC1; Aze = O=C(O)[C@@H]1CCN1; Sar = CNCC(=O)O
RECORDED_METRIC: IC50 (µM)
Please give a number only; it is taken to be in µM.

Entry CC[C@H](C)[C@@H]1NC(=O)[C@H](C)N(C)C(=O)C[C@@H](C(=O)N(C)C)N(C)C(=O)[C@H]([C@@H](C)CC)N(C)C(=O)C2(CCCC2)NC(=O)[C@H](Cc2ccc(Br)cc2)N(C)C(=O)[C@H](CCc2ccc(C(F)(F)F)c(Cl)c2)NC(=O)CN(C)C(=O)[C@H](Cc2ccc(C)cc2)N(C)C(=O)[C@@H]2CCN2C(=O)[C@H](C)N(C)C1=O [Compound 1893] ([NMeA]I[NMeA][Aze][NMePhe(4-Me)][Sar][hPhe(3-Cl-4-CF3)][NMePhe(4-Br)][Ac5c][NMeI][NMeD]-NMe2; lactam N-11) needs its IC50 filled in; supply it. 0.014

Entry CC[C@H](C)[C@@H]1NC(=O)[C@H](C)N(C)C(=O)C[C@@H](C)NC(=O)[C@H](C(C)C)N(C)C(=O)C2(CCCC2)NC(=O)[C@@H]2CCCN2C(=O)[C@H](CCc2ccc(C(F)(F)F)c(Cl)c2)NC(=O)[C@@H](C)N(C)C(=O)[C@H](Cc2ccccc2)N(C)C(=O)CN(C)C(=O)CN(C)C1=O [Compound 1691] (cyclo([Ac5c][NMeV][d(β3hA)][NMeA]I[Sar][Sar][NMeF][dNMeA][hPhe(3-Cl-4-CF3)]P)) needs its IC50 filled in; supply it. 0.12

Reference source for all entries: patent US12371454B2
